Data credit: PubChem BioAssay

assay: SU-DIPG-XXV glioma cell viability, MIPE5.0 library, qHTS (AID 1347068);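 as to IC50: cells exposed to compound for 48 hours before viability readout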
Records with an inconclusive call do not appear. Active and inactive are the calls of the source. The limit is not given here; nearly all actives have IC50 up to about 30 µM.
measure: IC50

Fc1ccc(Cl)cc1-c1nc(Nc2ccncc2)c2nccnc2n1    inactive
O=C(O)C1CCCN(CCC=C(c2ccccc2)c2ccccc2)C1 (centres undefined)    inactive
COc1nccc(-c2c(-c3ccc(F)cc3)ncn2C2CCC(O)CC2)n1 (centres undefined)    inactive
Nc1ncnc2c1ncn2[C@@H]1O[C@H](CO)C[C@H]1O    inactive
COc1nc(C)nc(Cl)c1NC1=NCCN1    inactive
Clc1ccc(-c2nc3sccn3c2/C=N/OCc2ccc(Cl)c(Cl)c2)cc1    inactive
CC1c2cccc(O)c2C(O)=C2C(=O)C3(O)C(O)=C(C(N)=O)C(=O)C(N(C)C)C3C(O)C21 (centres undefined)    inactive
Cc1ccc(/C=N/NC(=O)c2ccccc2Oc2ccccc2)o1    inactive
CCCc1nc(C(C)(C)O)c(C(=O)O)n1Cc1ccc(-c2ccccc2-c2nn[nH]n2)cc1    inactive
COc1ccc([C@@H]2CNC(=O)C2)cc1OC1CCCC1    inactive

-- ask For the compound `CC(C)[C@H](CO)Nc1nc(Nc2cccc(Cl)c2)c2ncn(C(C)C)c2n1` , what IC50 is on record?
-- reply 16.6 µM (active)

-- ask What do we get for `NCCCCNCCCN` ?
-- reply 0.00118 µM (active)

----------
assay: HepG2 cytotoxicity, primary screen, cytotoxicity control for P. falciparum antimalarial project, cell-based, ATP luminescence (AID 2303); conditions: HepG2 viability, 24-48 h, at 10 µM, active compounds read high;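 also: 0% = DMSO wells and 100% = digitonin-killed cells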
Lab note: cut-off is 30%. Strictly less in inhibition is satisfied. Exactly 30% or more is not satisfied.

-- ask Lab log: compare recorded inhibition with 30%; is it strictly lower for `CCc1ccc(NC(=O)C=NN=C(N)N)cc1` ?
-- reply satisfied

-- ask What do we get for `CCOc1ccc(C=CC(=O)Nc2ccc3nc(N4CCOCC4)cc(C)c3c2)cc1OC` ?
-- reply satisfied

-- ask What do we get for `Cc1nc2nc(N)nc(N)c2c(C)c1Cc1ccc(O)cc1` ?
-- reply not satisfied

-- ask What do we get for `Cc1cccc2[nH]c(-c3cccc(-c4ccc(NC(=O)Nc5ccc(Cl)c(Cl)c5)cc4)c3)nc12` ?
-- reply not satisfied

-- ask What do we get for `CC(C)(CNCc1ccc(F)c(F)c1)c1nc(-c2ccc(Cl)c(O)c2)c(-c2ccncc2)[nH]1` ?
-- reply not satisfied

-- ask What do we get for `CN(C)CCN(C)Cc1ccc(-c2ccc3c(Nc4ccc(Cl)cc4F)ccnc3c2)o1` ?
-- reply satisfied

-- ask What do we get for `CS(=O)(=O)Nc1cccc(-c2cnc3[nH]cc(-c4ccc(C(=O)O)c(F)c4)c3c2)c1` ?
-- reply satisfied

-- ask What do we get for `CCN(CC)CCN(CCCc1ccc(-c2ccc(C(F)(F)F)cc2)cc1)C(=O)Cn1c(CCc2cccc(F)c2F)nc(=O)c2ccccc21` ?
-- reply not satisfied

-- ask What do we get for `C=C(C)Cn1cc(C2CCN(CCN3CCC(CNC(=O)c4ccc(-c5ccc(C#N)cc5)cc4)CC3)CC2)c2ccccc21` ?
-- reply not satisfied

----------
test: antimalarial activity against Dd2 strain (AID 2302);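 also: 0% = DMSO untreated growth and 100% = chloroquine plus artemisinin killed control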; settings: P. falciparum Dd2 in RBCs, LDH growth readout, 72 h; at 2 µM
The source made the active and inactive calls.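 The calls were made as follows: active = growth inhibition above 50% at the single 2 µM test dose, taken to imply half-maximal potency below 2 µM; inactive = the rest.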
Your answer must be one of the following: 1 = active, -1 = inactive

-- ask How did this test come out for `COc1ccc2nccc([C@@H](O)CN3CCC(NC(=O)C(=O)c4c[nH]c5c(C)cccc45)CC3)c2c1` ?
-- reply 1

-- ask What do we get for CCCc1cc(OC)c(CC2c3cc(O)c(Cl)cc3C(c3ccccc3)CN2C)cc1OC (stereo not drawn) ?
-- reply 1

-- ask What do we get for `CCCN(c1ccc(O)c(CN2CCCCC2)c1)c1ccc([N+](=O)[O-])cn1` ?
-- reply 1

-- ask What do we get for CCOC(=O)c1c(NC(NC(=O)c2ccc(C(C)(C)C)cc2)C(Cl)(Cl)Cl)sc2c1CCCC2 (stereo not drawn) ?
-- reply 1

-- ask What do we get for `O=C(c1ccccc1)N1CCC(CN2CCOC(c3ccccc3)(c3ccccc3)C2)CC1` ?
-- reply 1

-- ask What do we get for `COc1ccc2nc(C)cc(Nc3ccc(N4CCN(C)CC4)cc3)c2c1` ?
-- reply -1

-- ask What do we get for CC1CN=C(c2ccc(NC(=O)Nc3ccc(C4=NCC(C)N4)cc3)cc2)N1 (stereo not drawn) ?
-- reply 1

-- ask What do we get for `CCn1c(-c2nonc2N)nc2c(-c3cccc(NC(=O)Nc4ccccc4OC)c3)ncc(OCCCN)c21` ?
-- reply 1

-- ask What do we get for `Cc1cc(OCCCNc2nc(NCCc3ccc(O)cc3)nc(N3CCNCC3)n2)c(Cl)c(C)c1Cl` ?
-- reply -1

-- ask What do we get for `COc1ccc(Nc2ncc3c(-c4cccc(NC(=O)Cc5cccc(O)c5)c4)c[nH]c3n2)cc1OC` ?
-- reply 1

-- ask What do we get for `O=C(Nc1cccc(-c2nn3ccccc3c2-c2ccnc(Nc3ccc(NCCCN4CCOCC4)c(F)c3)n2)c1)c1c(F)cccc1F` ?
-- reply 1

-- ask What do we get for `CC(C)(C)OC(=O)NCc1ccc(Nc2nnc(-c3cccc(C(=O)NCc4cc(C(F)(F)F)cc(C(F)(F)F)c4)c3)o2)cc1` ?
-- reply -1

-- ask What do we get for `COc1ccccc1-c1nc2c(ccc3nc(N)nc(N)c32)[nH]1` ?
-- reply 1

-- ask What do we get for `CCCCCCOc1ccc2ccccc2c1CNCCCCCCNCc1c(OCCCCCC)ccc2ccccc12` ?
-- reply 1

-- ask What do we get for `Cc1nc(N)nc(N)c1-c1cc(Cl)c(Cl)c(Cl)c1` ?
-- reply -1

-- ask What do we get for CC(C)c1ccc(NC(=O)c2ccc(C(=O)NC3CCN(CC4CCCCC4)C3)cc2)cc1 (stereo not drawn) ?
-- reply -1

-- ask What do we get for `Cc1cc(N2CCCC2)nc(Nc2ccc(NC(=O)C3CCCC3)cc2)n1` ?
-- reply 1

-- ask What do we get for `CS(=O)(=O)c1ccc(-n2nc(C(F)(F)F)cc2-c2ccc(/C=N/OCC(=O)O)o2)cc1` ?
-- reply -1

-- ask What do we get for `Nc1ncc(-c2cccc(F)c2)cc1-c1nc2ccc(F)cc2[nH]1` ?
-- reply 1

-- ask What do we get for `CS(=O)(=O)Cc1cccc(Nc2ncc(Cl)c(Nc3cccnc3C(N)=O)n2)c1` ?
-- reply 1

-- ask What do we get for `CCOc1ccc(C(=O)Nc2cc(Br)c3c(c2)CNCC3)cc1C(F)(F)F` ?
-- reply -1

-- ask What do we get for `CCCCn1c(=N)c(C(=O)NCc2cccnc2)cc2c(=O)n3cccc(C)c3nc21` ?
-- reply -1

-- ask What do we get for `CCCN1CCN(CCNC(=O)c2cccc(Nc3nccc(Nc4ccc(Oc5ccccc5)cc4)n3)c2)CC1` ?
-- reply 1

-- ask What do we get for `C=CCn1ccc2c3c(N)nc(N)nc3ccc21` ?
-- reply 1

-- ask What do we get for `Cc1nc(N)nc(N)c1-c1ccc(Cl)cc1` ?
-- reply -1

-- ask What do we get for `COc1cc(Cc2cnc(N)nc2N)cc(OCCCCNS(=O)(=O)C(F)(F)F)c1OC` ?
-- reply -1

-- ask What do we get for `CC(C)(C)NCCN(Cc1ccc(-c2ccc(C(F)(F)F)cc2)cc1)C(=O)Cn1c(CCc2cccc(F)c2F)nc(=O)c2c1CCC2` ?
-- reply -1

-- ask What do we get for `COc1cccc(C=CC(=O)N(CCN)Cc2ccccc2)c1` ?
-- reply -1

-- ask What do we get for CC(C)CC1(C(=O)OC(C)(C)C)CC(C(=O)OC(C)(C)C)C(c2cccs2)N1C(=O)c1ccc(C(C)(C)C)cc1 (stereo not drawn) ?
-- reply 1

-- ask What do we get for CC(CN(C)C)C(=O)Nc1ccc(-c2ccc(-c3nc4ccc(C(F)(F)F)cc4[nH]3)cc2)cc1 (stereo not drawn) ?
-- reply 1

-- ask What do we get for `O=C(Nc1cccc(-c2cccc(-c3nc4ccccc4[nH]3)c2)c1)c1csnn1` ?
-- reply -1

-- ask What do we get for `Nc1ncc(-c2ccc(F)c(Cl)c2)c(N)n1` ?
-- reply -1

-- ask What do we get for `O=C(NCCCN1CCCCC1)c1ccc(Nc2nccc(Nc3ccc(Oc4ccccc4)cc3)n2)cc1` ?
-- reply 1

-- ask What do we get for `CCN(CC)CCCN(CCCN(CC)CC)c1cc(C)nc(Nc2ccc(Br)cc2)n1` ?
-- reply -1

-- ask What do we get for `c1cncc(Oc2ccc(Nc3ccnc4cc(-c5cccc(CNCCN6CCOCC6)c5)ccc34)cc2)c1` ?
-- reply 1

-- ask What do we get for `CS(=O)(=O)Cc1ccc(Nc2nccc(-c3c(-c4cccc(C(=O)Nc5c(F)cccc5F)c4)nn4ccccc34)n2)cc1` ?
-- reply 1

-- ask What do we get for `CS(=O)(=O)Nc1ccc(-c2cnc3[nH]cc(-c4ccc(C(=O)O)cc4)c3c2)cc1` ?
-- reply -1

-- ask What do we get for `CN(C)CCN1CCN(Cc2ccc(-c3cccc(-c4nc5ccccc5[nH]4)c3)cc2)CC1` ?
-- reply 1
